# Measurement target: T1, Mch3α, bacterially expressed recombinant active enzyme (human, UniProt P55210 24-303, limits assumed)
# T1 construct: Expressed in E. coli as a GST fusion (Mch3α1 or Mch3α2); also called recombinant Mch3α
# T1 sequence: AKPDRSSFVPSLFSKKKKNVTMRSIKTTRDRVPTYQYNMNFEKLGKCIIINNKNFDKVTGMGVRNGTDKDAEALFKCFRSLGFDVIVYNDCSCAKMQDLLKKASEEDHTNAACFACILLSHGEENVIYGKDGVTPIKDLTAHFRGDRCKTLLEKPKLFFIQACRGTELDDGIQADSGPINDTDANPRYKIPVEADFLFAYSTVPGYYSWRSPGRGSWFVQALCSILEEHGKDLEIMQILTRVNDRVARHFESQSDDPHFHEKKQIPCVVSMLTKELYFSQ
# Experimental protocol: inhibition of hydrolysis of 50 µM DEVD-AMC, continuous fluorometric assay, bacterial lysate, 30 min preincubation
No end group written: not given here.
Observed property: pKi
For clarity, pKi is expressed as the negative log10 of concentration in mol/L.

Q: Look up pKi for this binder: DEVD-aldehyde (also called DEVD-CHO) [tetrapeptide DEVD aldehyde]
Result: 8.74
